Target: Endoribonuclease toxin MazF (Escherichia coli (strain K12)) (UniProt P0AE70)
Sequence (P0AE70 whole entry, looked up): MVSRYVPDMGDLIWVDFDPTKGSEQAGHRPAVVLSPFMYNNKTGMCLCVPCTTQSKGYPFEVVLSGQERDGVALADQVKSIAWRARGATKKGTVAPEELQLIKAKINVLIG
Experiment notes: activators of E. coli MazEF toxin-antitoxin RNase, primary screen, biochemical, fluorescence, uHTS (AID 504720)
Experimental parameters: FAM/BHQ RNA-DNA oligo cleavage fluorescence, 5 h, at 20 µM
Among all 350,000 compounds or so, about 1,100 (0.31%) were called active. Rule as the data show it: active = activation above about 50%; inactive = the rest. The entries come from a sample that favours actives as a whole.
Return exactly one item of active, inactive

Completed entries (count: 2):
                                   molecule  qualitative_label
0  CCOc1ccc(N2C(=O)CN(c3cccc4ccccc34)C2=S)cc1           inactive
1  OCC[C@H]1C[C@H](O)[C@@H](O)[C@]2(CCc3ccccc3O2)O1           inactive

Please let me know the test result on file for Cc1ccsc1CNn1cnnc1SCc1ccccc1F .
active

Please let me know the test result on file for Cc1cccc(N2C(=O)C3C(c4ccccc4)OC4(C(=O)c5ccccc5C4=O)C3C2=O)c1 (stereo not given) .
inactive

Please let me know the test result on file for Cc1noc(NS(=O)(=O)c2ccc(N3CC(O)=C(c4ccccc4)C3=N)cc2)c1C .
inactive

====

Target: Endoribonuclease toxin MazF (Escherichia coli (strain K12))
Experiment notes: activators of E. coli MazEF toxin-antitoxin RNase, primary screen, biochemical, fluorescence, uHTS (AID 504720)
Experimental parameters: FAM/BHQ RNA-DNA oligo cleavage fluorescence, 5 h, at 20 µM
Screen size: about 350,000 compounds; about 1,100 (0.31%) were called active. No stated cut-off is given here; in the data, active means activation above about 50%; inactive means the rest. What follows is part of a selection rich in actives, with near analogues and random picks from the rest.
Return exactly one item of label 1 (active), label 0 (inactive)

Completed entries (count: 4):
>>> print(df.to_string())
                                   compound  qualitative_label
0  COc1cc(S(=O)(=O)N(Cc2cccs2)C2CC2)ccc1-n1cnnn1            label 0
1                 O=C(CSc1ccc(Cl)cc1)NC1CC1            label 0
2  CCCC1(C(=O)OC)NC(c2ccco2)C2C(=O)N(C)C(=O)C21 (stereo unspecified)            label 0
3        COc1ccc(N2CCN(Cc3ccc(Br)s3)CC2)cc1            label 0

Please let me know the test result on file for O=C(NNC(=S)Nc1ccc(F)cc1)[C@H]1C[C@@H]1c1ccccc1 .
label 0

Please let me know the test result on file for COc1ccc(/C=C/c2c(-c3cccc(C)c3)oc3ccc(-c4ccc5c(c4)OCO5)cc23)cc1 .
label 0

Please let me know the test result on file for CC(=O)c1sc(NC(=O)c2cccc3ccccc23)nc1C .
label 1

Please let me know the test result on file for CNC(=O)c1c(NC(NC(=O)c2ccco2)C(=O)c2ccc(Cl)cc2)sc2c1CCCC2 (stereo unspecified) .
label 0

Please let me know the test result on file for C=CC[C@H](CC(=O)N(CCO)Cc1ccccc1)C(=O)N[C@@H](COC(=O)[C@@H](CC=C)Cc1ccc(F)cc1)Cc1ccccc1 .
label 0

Please let me know the test result on file for Cc1nc([N+](=O)[O-])cn1CC(=O)Nc1ccc(Cl)cc1 .
label 0

Please let me know the test result on file for CC(=O)c1sc(NC(=O)C2=NN(c3ccccc3)C(=O)CC2)nc1C .
label 0
